# assayed_target: Cholinesterase (Equus caballus, UniProt P81908)
# Sequence (P81908 whole entry): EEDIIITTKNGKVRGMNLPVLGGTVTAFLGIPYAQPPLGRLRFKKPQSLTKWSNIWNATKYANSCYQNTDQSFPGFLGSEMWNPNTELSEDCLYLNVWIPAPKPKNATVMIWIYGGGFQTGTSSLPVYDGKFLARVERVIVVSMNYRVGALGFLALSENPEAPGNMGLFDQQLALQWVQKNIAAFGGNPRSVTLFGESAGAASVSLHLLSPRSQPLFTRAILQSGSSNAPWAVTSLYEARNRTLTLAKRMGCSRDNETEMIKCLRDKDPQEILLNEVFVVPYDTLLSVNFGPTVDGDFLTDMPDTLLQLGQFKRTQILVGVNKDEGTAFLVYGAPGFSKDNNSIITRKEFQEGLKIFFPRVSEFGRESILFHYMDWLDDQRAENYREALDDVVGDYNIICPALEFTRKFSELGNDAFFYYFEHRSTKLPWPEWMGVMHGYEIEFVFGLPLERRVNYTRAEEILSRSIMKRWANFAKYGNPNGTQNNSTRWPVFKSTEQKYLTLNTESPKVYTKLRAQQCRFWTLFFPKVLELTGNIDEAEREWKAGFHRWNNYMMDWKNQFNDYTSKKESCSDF
# procedure_text: Inhibition of equine serum BuChE
pIC50: −log10 of the molar value.
measurement_label: pIC50

>>> df
                                   compound  recorded_number
0  O=C1N(Cc2ccccc2)c2ccccc2C1(O)c1ccccc1 (racemic)             5.13
1  Cl.O=C1N(CC2CCNCC2)c2ccccc2C1(O)c1ccccc1 (racemic)             4.74

---

# assayed_target: Acetylcholinesterase (Mus musculus)
# Sequence (P21836 whole entry): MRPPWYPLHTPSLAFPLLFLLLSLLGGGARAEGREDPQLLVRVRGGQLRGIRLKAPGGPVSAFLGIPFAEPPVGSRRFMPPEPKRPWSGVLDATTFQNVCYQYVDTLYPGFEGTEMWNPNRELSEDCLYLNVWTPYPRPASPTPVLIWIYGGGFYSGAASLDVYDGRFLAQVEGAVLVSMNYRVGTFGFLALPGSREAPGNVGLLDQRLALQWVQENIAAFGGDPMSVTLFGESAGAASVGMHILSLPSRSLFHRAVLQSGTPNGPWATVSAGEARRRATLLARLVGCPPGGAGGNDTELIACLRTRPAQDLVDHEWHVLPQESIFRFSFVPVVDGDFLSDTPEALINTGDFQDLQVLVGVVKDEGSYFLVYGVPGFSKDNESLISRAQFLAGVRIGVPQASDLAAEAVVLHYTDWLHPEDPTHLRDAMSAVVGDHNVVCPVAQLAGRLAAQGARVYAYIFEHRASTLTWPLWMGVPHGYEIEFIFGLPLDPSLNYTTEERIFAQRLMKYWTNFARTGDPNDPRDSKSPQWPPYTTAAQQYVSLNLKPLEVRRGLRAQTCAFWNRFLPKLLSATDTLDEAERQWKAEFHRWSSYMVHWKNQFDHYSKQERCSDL
measurement_label: IC50 (µM)

>>> print(df.to_string())
                                   molecule  measurement_label  recorded_number
0  Cl.O=C1N(CC2CCNCC2)c2ccccc2C1(O)c1ccccc1 (racemic)               IC50              565
